System: CRB
experimental-endpoint: MIC (µg/mL)
Express the result in µg/mL but write the number alone.

Param readout = MIC; param system = CRB; param query = CN(C)c1ccc(O)c2c1C[C@H]1C[C@H]3[C@H](N(C)C)C(O)=C(C(N)=O)C(=O)[C@@]3(O)C(O)=C1C2=O [MIN, minocycline] ; response: value
0.5

Param readout = MIC; param system = CRB; param query = NC[C@H]1O[C@H](O[C@H]2[C@H](O)[C@@H](O[C@H]3O[C@H](CO)[C@@H](O)[C@H](N)[C@H]3O)[C@H](N)C[C@@H]2N)[C@H](N)C[C@@H]1O [TOB, tobramycin] ; response: value
0.06

###

experimental-endpoint: MIC (µg/mL)
Express the result in µg/mL but write the number alone.

Param readout = MIC; param system = CRB; param query = O=C(O)c1cn(C2CC2)c2cc(N3CCNCC3)c(F)cc2c1=O ; response: value
0.5

Param readout = MIC; param system = CRB; param query = C/C(=C\C(=O)OCCCCCCCCC(=O)O)C[C@@H]1OC[C@H](C[C@@H]2O[C@H]2[C@@H](C)[C@H](C)O)[C@@H](O)[C@H]1O ; response: value
0.03

Param readout = MIC; param system = CRB; param query = Nc1nc(/C(=N/O)C(=O)N[C@@H]2C(=O)N3C(C(=O)O)=C(/C=C4\CCN([C@@H]5CCNC5)C4=O)CS[C@H]23)ns1 ; response: value
128

Param readout = MIC; param system = CRB; param query = C[C@@H](O)[C@H]1C(=O)N2C(C(=O)O)=C(S[C@@H]3CN[C@H](C(=O)N(C)C)C3)[C@H](C)[C@H]12 ; response: value
64

Param readout = MIC; param system = CRB; param query = C[C@H]1COc2c(N3CCN(C)CC3)c(F)cc3c(=O)c(C(=O)O)cn1c23 ; response: value
0.5

###

Form: system (COLnex), quantity (MIC), values below.
Express the result in µg/mL but write the number alone.

For the molecule shown here, C/C(=C\C(=O)OCCCCCCCCC(=O)O)C[C@@H]1OC[C@H](C[C@@H]2O[C@H]2[C@@H](C)[C@H](C)O)[C@@H](O)[C@H]1O , give the reported MIC.
0.03

For the molecule shown here, CCOc1ccc2ccccc2c1C(=O)N[C@@H]1C(=O)N2[C@@H]1SC(C)(C)[C@@H]2C(=O)O , give the reported MIC.
0.25

For the molecule shown here, C[C@@H](O)[C@H]1C(=O)N2C(C(=O)O)=C(S[C@@H]3CN[C@H](C(=O)N(C)C)C3)[C@H](C)[C@H]12 , give the reported MIC.
1

For the molecule shown here, O=C(O)c1cn(C2CC2)c2cc(N3CCNCC3)c(F)cc2c1=O , give the reported MIC.
0.25

For the molecule shown here, Nc1nc(/C(=N/O)C(=O)N[C@@H]2C(=O)N3C(C(=O)O)=C(/C=C4\CCN([C@@H]5CCNC5)C4=O)CS[C@H]23)ns1 , give the reported MIC.
0.25

For the molecule shown here, C[C@H]1COc2c(N3CCN(C)CC3)c(F)cc3c(=O)c(C(=O)O)cn1c23 , give the reported MIC.
0.25

For the molecule shown here, NC[C@H]1O[C@H](O[C@H]2[C@H](O)[C@@H](O[C@H]3O[C@H](CO)[C@@H](O)[C@H](N)[C@H]3O)[C@H](N)C[C@@H]2N)[C@H](N)C[C@@H]1O , give the reported MIC.
0.06

For the molecule shown here, CN(C)c1ccc(O)c2c1C[C@H]1C[C@H]3[C@H](N(C)C)C(O)=C(C(N)=O)C(=O)[C@@]3(O)C(O)=C1C2=O , give the reported MIC.
0.5
